Origin of measurements: paper PMC10002220

Test: Pharmacokinetics of methylated catechin derivatives in plasma
Format: in vivo, BALB/c mice
Conditions: BALB/c, mouse, ip, 30 mg/kg
endpoint.label: Cmax (ng/mL)
Use ng/mL as the unit, but write only the number.

Qu. Any idea what its Cmax is? The molecule is "COc1cc(OC)c2c(c1)O[C@H](c1ccc(OC)c(OC)c1)[C@H](OC(=O)c1ccc(F)c(NC(=O)c3cc(OC)c(OC)c(OC)c3)c1)C2"
Ans. 5610

Qu. Another: COc1cc(OC)c2c(c1)OC(c1cc(OC)c(OC)c(OC)c1)C(OC(=O)C=Cc1cc(OC)c(OC)c(OC)c1)C2 (stereo not shown)
Ans. 2210

Qu. Another: "COc1cc(OC)c2c(c1)O[C@H](c1ccc(OC)c(OC)c1)[C@@H](OC(=O)c1ccc(F)c(NC(=O)c3cc(OC)c(OC)c(OC)c3)c1)C2"
Ans. 5260

Qu. Another: "COc1cc(OC)c2c(c1)O[C@H](c1cc(OC)c(OC)c(OC)c1)[C@@H](OC(=O)c1ccc(F)c(NC(=O)c3cc(OC)c(OC)c(OC)c3)c1)C2"
Ans. 6120

###

Give measured IC50 for each item. Keep answers brief.
System: K562/P-gp cells
Test: Drug resistance level: IC50 of anticancer drugs in K562/P-gp
Type: cell-based, human
Settings: Homo sapiens, K562, 72 h; 3 days incubation
I'd appreciate it if you included the unit after the number.

Qu. Hello, I am looking for reported IC50 with K562/P-gp cells for "CC[C@]1(O)C[C@H]2CN(CCc3c([nH]c4ccccc34)[C@@](C(=O)OC)(c3cc4c(cc3OC)N(C=O)[C@H]3[C@@](O)(C(=O)OC)[C@H](OC(C)=O)[C@]5(CC)C=CCN6CC[C@]43[C@@H]65)C2)C1" . Could you help?
Ans. 84.1 nM

Qu. Another: "COc1cccc2c1C(=O)c1c(O)c3c(c(O)c1C2=O)C[C@@](O)(C(=O)CO)C[C@@H]3O[C@H]1C[C@H](N)[C@H](O)[C@H](C)O1"
Ans. 1930 nM

###

Give measured half-life for each item. Keep answers brief.
Assay: Pharmacokinetics of methylated catechin derivatives in plasma
Format: in vivo, BALB/c mice
Settings: BALB/c, mouse, ip, 30 mg/kg
Use h as the unit, but write only the number.

Qu. Any idea what its half-life is? The compound is COc1cc(OC)c2c(c1)O[C@H](c1ccc(OC)c(OC)c1)[C@H](OC(=O)c1ccc(F)c(NC(=O)c3cc(OC)c(OC)c(OC)c3)c1)C2 [EC31]
Ans. 3.33

Qu. Another: COc1cc(OC)c2c(c1)O[C@H](c1cc(OC)c(OC)c(OC)c1)[C@@H](OC(=O)c1ccc(F)c(NC(=O)c3cc(OC)c(OC)c(OC)c3)c1)C2 [GC51]
Ans. 3.83

Qu. Another: COc1cc(OC)c2c(c1)OC(c1cc(OC)c(OC)c(OC)c1)C(OC(=O)C=Cc1cc(OC)c(OC)c(OC)c1)C2 (stereo not shown) [EGC23]
Ans. 2.45

Qu. Another: COc1cc(OC)c2c(c1)O[C@H](c1ccc(OC)c(OC)c1)[C@@H](OC(=O)c1ccc(F)c(NC(=O)c3cc(OC)c(OC)c(OC)c3)c1)C2 [C25]
Ans. 3.12
